Consider the following molecules; for each one, report its Tmax.
Test: Tmax in Sprague-Dawley rat at 10 mg/kg, po by LC-ESI-MS analysis
Type: ADME, organism-based
Conditions: in vivo
Value expressed in h; do not type the unit.

Input: Give the value of Tmax reported for the following: CC#C[C@@H](CC(=O)O)c1ccc(OC[C@H]2COc3ccccc3O2)cc1
Output: 1.17

Input: Query Tmax for CC#C[C@@H](CC(=O)O)c1ccc(OC[C@H]2COc3ccc(Cl)cc3O2)cc1
Output: 4

Input: Specify measured Tmax for Cc1cc(OCCCS(C)(=O)=O)cc(C)c1-c1cccc(COc2ccc3c(c2)OC[C@H]3CC(=O)O)c1 .
Output: 3.5

Input: Return value of Tmax for input CC#C[C@@H](CC(=O)O)c1ccc(OC[C@H]2COc3ccc(C)cc3O2)cc1 , no commentary.
Output: 0.417
